Experimental system: T1, extracellular domain of human CD73 protein, C-terminus polyhistidine-tagged (human, UniProt P21589 27-547)
T1 construct: also the immunogen; also called CD73-ECD; human CD73-ECD
T1 sequence: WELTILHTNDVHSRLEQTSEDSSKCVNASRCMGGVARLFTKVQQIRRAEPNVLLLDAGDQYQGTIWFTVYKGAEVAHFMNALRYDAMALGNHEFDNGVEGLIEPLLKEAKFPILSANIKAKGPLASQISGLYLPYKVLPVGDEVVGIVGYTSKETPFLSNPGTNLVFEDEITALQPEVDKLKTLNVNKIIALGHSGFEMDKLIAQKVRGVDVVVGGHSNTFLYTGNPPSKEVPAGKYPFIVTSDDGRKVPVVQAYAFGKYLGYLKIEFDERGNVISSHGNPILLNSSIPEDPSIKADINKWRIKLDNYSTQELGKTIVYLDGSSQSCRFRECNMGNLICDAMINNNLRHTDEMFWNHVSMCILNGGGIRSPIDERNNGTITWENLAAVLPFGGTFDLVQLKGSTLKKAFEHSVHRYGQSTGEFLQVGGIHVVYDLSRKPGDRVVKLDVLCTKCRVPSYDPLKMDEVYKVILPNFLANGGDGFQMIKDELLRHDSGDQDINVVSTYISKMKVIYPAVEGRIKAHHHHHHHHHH
Test summary: ELISA on human CD73-ECD, 1 µL supernatant of transfected HEK293F cells; PBS blank 0.073
Readings of ELISA (OD450) for the listed binders
Give your result in OD450 as a bare value.

chimeric nanobody 2-G9 (Fc fusion, Tested as supernatant of transiently transfected HEK293F cells) VHH: QLQLVESGGGLVQPGGSLRLSCAASGFLLDYYTIGWFRQAPGKELEGVSCISSSDSSPYDADSVKGRFTMSRDNANNTVYLQMNSLKPEDTAVYYCAAQRYYYCALRANVYDYWGQGTQVTVST : 0.924
chimeric nanobody 3-F1 (Fc fusion, Tested as supernatant of transiently transfected HEK293F cells) VHH: QVQLVESGVSLVQPGGSLRLSCAASGFTLDYYTIGWFRQAPGKELEGISCIRSSDSSPYDADSVKDRFTMSRDNANNTVYLQMNSLKPEDTADYYCAAQRYYYCSLTANVYDYWGQGTQVTVSS : 0.143
chimeric nanobody 1-E7 (Fc fusion, Tested as supernatant of transiently transfected HEK293F cells) VHH: QVQLVESGGGLVQPGGSLRLSCAASGFTLDYYNIGWFRQAPGKEREGVSCISNSDGSTYYADSVKGRFTISRDNAKNTVYLQMNSLKPEDTAVYYCAAYRGWHPSLDARVYDYWGQGTQVTVSS : 0.36
chimeric nanobody 3-A3 (Fc fusion, Tested as supernatant of transiently transfected HEK293F cells) VHH: QVQLVESGGGSVQPGGSLRLSCAASGFPLDYYTIGWFRQAPGKELEGVSCISSSDSSPYDADSVKGRFTMSRDNANNTVYLQMNSLKPEDTAVYYCAAQRYYYCSLRANVYDYWGQGTQVTVSS : 0.605

Could you share which ELISA (OD450) value was measured for chimeric nanobody 2-B10 (Fc fusion, Tested as supernatant of transiently transfected HEK293F cells) VHH: QLQLVESGGGLVQPGGSLRLSCAASGFTLDDNAIGWFRQAPGKEREGVACMRTSDGDTYYADSVKGRFTISRDNAKNTMYLQMNSLKPEDTAVYYCAAALGTYYSGFYYLAGDGMDYWGKGTLVTVSS ?
0.254
